# STUDY SYSTEM: Human Thrombin (Homo sapiens, UniProt P00734)
# ASSAY INFO: Inhibition of amidase activity of thrombin (Kass)
# Format: biochemical
# COND: mean over a range of concentrations; […]
ENDPOINT NAME: Kass Human Thrombin

These recorded examples may help you get a feel for the data.
O=C(O)CN[C@H](CC1CCCCC1)C(=O)N1CCC[C@H]1C(=O)NCCCC1=CCNCC1 [Example 60]
0.24 × 10^6 (L/mole)
CCS(=O)(=O)N[C@H](Cc1ccccc1)C(=O)N1CCC[C@H]1C(=O)NCCc1ccc(C(=N)N)cc1 [Example 26]
13 × 10^6 (L/mole)
N=C(N)NC/C=C/CNC(=O)[C@@H]1CCCN1C(=O)[C@H](N)Cc1ccccc1 (relative stereo) [Example 8]
5.3 × 10^6 (L/mole)

Please find the next molecule below.
## Input Entry under review: N=C(N)c1ccc(CNC(=O)CN(CCc2ccccc2)C(=O)CNCC(=O)O)cc1 [Example 89] . Reported Kass Human Thrombin?
## Output 0.14 × 10^6 (L/mole)
